Target: Recombinant STAT6 protein (STAT6 (W123-T658)) (Homo sapiens, UniProt P42226)
Construct: Recombinant STAT6 protein (STAT6 (W123-T658))
Sequence (P42226 123-658): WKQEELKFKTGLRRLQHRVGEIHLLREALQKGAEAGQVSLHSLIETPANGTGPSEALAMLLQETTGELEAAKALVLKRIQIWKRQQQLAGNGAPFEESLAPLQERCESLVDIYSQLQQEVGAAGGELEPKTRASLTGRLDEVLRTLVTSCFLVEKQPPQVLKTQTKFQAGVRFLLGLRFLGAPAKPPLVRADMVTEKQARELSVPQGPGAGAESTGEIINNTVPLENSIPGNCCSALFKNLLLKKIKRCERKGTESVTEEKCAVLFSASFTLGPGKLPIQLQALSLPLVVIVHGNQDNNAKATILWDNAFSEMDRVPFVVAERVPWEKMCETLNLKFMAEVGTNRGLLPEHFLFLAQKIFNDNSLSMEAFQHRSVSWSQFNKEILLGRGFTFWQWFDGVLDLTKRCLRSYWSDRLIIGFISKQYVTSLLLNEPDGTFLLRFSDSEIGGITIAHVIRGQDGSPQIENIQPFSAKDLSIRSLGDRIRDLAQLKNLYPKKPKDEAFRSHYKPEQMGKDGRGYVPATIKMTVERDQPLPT
Assay: STAT6 Fluorescence Polarization (FP) Assay
Assay type: binding
Conditions: STAT6 (W123-T658) 250 nM, probe 5-FAM-Ap[…]-NH2 2 nM, 45-minute incubation; read-out: STAT6 (FP assay IC50 class)
experimental.readout: IC50

| molecule | value |
| --- | --- |
| COc1cc(C)c(C2CN(C(=O)[C@@H]3CC[C@@H]4CCC[C@H](NC(=O)c5cc6cc(CP(=O)(O)O)ccc6s5)C(=O)N43)C2)cn1 | 3 to 30 µM |
| COc1cccc([C@@H]2CN(C(=O)[C@@H]3CC[C@@H]4CCCC[C@H](NC(=O)c5cc6cc(C(F)P(=O)(O)O)ccc6s5)C(=O)N43)C3(CC3)[C@H]2C#N)c1 (relative stereo) | ≤ 0.3 µM |
| O=C(N[C@H]1CCC[C@H]2CC[C@@H](C(=O)N3CC(c4cccnc4)CC34CC4)N2C1=O)c1ccc2ccc(C(F)P(=O)(O)O)cc2c1 (stereo partly drawn) | 0.3 to 3 µM |

====

Listed here: items and their measured IC50.
Target: Recombinant STAT3 protein (STAT3 (G127-I722)) (Homo sapiens, UniProt P40763)
Construct: Recombinant STAT3 protein (STAT3 (G127-I722))
Sequence (P40763 127-722): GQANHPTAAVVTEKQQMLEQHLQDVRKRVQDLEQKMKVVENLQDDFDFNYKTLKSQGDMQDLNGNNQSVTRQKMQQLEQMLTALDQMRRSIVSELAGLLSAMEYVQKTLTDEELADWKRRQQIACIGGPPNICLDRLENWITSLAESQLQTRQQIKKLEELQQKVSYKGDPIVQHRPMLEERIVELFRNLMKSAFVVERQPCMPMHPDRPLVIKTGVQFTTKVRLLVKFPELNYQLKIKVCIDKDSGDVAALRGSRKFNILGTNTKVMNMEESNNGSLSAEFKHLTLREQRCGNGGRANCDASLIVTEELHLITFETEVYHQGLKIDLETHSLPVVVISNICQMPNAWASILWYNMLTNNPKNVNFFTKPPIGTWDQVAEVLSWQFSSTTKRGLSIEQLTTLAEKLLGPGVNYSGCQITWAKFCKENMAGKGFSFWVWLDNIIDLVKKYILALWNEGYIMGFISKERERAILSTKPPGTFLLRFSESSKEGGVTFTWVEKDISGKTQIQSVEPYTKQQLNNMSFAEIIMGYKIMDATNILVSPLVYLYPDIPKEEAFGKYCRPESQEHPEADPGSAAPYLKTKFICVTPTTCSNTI
Test: STAT3 Fluorescence Polarization (FP) Assay
Type: binding
Conditions: STAT3 (G127-I722) 25 nM, probe 5-FAM-GpYLPQTV-NH2 2 nM, 45-minute incubation; read-out: STAT3 (FP assay IC50 class)

| compound | IC50 |
| --- | --- |
| O=C(N[C@H]1CCCC[C@H]2CC[C@@H](C(=O)N[C@@H]3CCN(c4ccn[nH]4)C3)N2C1=O)c1cc2cc(C(F)P(=O)(O)O)ccc2s1 (some centres unmarked) | 1000 to 10000 nM |
| O=C(N[C@H]1CCCC[C@H]2CC[C@@H](C(=O)N3CCCC34CC4)N2C1=O)c1cc2cc(C(F)(F)P(=O)(O)O)ccc2s1 | 1000 to 10000 nM |
| O=C(N[C@H]1CCC[C@H]2CC[C@@H](C(=O)N3CCC(c4n[nH]cc4F)CC3)N2C1=O)c1cc2cc(C(F)P(=O)(O)O)ccc2s1 (some centres unmarked) | 1000 to 10000 nM |
| Cc1nccnc1C1CN(C(=O)[C@@H]2CC[C@@H]3CCC[C@H](NC(=O)c4cc5cc(CP(=O)(O)O)ccc5s4)C(=O)N32)C1 | 1000 to 10000 nM |
| COC1(c2nncn2C)CN(C(=O)[C@@H]2CC[C@@H]3CCC[C@H](NC(=O)c4cc5cc(C(F)(F)P(=O)(O)O)ccc5s4)C(=O)N32)C1 | 100 to 1000 nM |
| O=C(N[C@H]1CCC[C@H]2CC[C@@H](C(=O)N3CC(c4cnccc4N4CCC4)C3)N2C1=O)c1cc2cc([C@@H](F)P(=O)(O)O)ccc2s1 (single isomer, unassigned) | < 100 nM |
| N#C[C@@H]1CN(C(=O)[C@@H]2CC[C@@H]3CCCC[C@H](NC(=O)c4ccc5ccc(C(F)P(=O)(O)O)cc5c4)C(=O)N32)C[C@H]1c1ccccc1 (single isomer, unassigned) | 1000 to 10000 nM |
| O=C(N[C@H]1CCC[C@H]2CC[C@@H](C(=O)N3CC(n4cc(F)cn4)C3)N2C1=O)c1cc2cc(C(F)P(=O)(O)O)ccc2s1 (some centres unmarked) | 100 to 1000 nM |
| COc1cc(F)ncc1C1CN(C(=O)[C@@H]2CC[C@@H]3CCC[C@H](NC(=O)c4cc5cc(CP(=O)(O)O)ccc5s4)C(=O)N32)C1 | 1000 to 10000 nM |
| COc1ccncc1[C@@H]1CCN(C(=O)[C@@H]2CC[C@@H]3CCC[C@H](NC(=O)c4cc5cc(C(F)P(=O)(O)O)ccc5s4)C(=O)N32)C1 (some centres unmarked) | < 100 nM |
| COc1ncccc1[C@@H]1CN(C(=O)[C@@H]2CC[C@@H]3CCCC[C@H](NC(=O)c4cc5cc(C(F)P(=O)(O)O)ccc5s4)C(=O)N32)C[C@H]1C#N (relative stereo) | 1000 to 10000 nM |
